The measurements presented in this section are drawn from patent US6589954B1.

- subject_of_test: cdc2 (Homo sapiens, UniProt P06493)
- Sequence (P06493 whole entry, species assumed): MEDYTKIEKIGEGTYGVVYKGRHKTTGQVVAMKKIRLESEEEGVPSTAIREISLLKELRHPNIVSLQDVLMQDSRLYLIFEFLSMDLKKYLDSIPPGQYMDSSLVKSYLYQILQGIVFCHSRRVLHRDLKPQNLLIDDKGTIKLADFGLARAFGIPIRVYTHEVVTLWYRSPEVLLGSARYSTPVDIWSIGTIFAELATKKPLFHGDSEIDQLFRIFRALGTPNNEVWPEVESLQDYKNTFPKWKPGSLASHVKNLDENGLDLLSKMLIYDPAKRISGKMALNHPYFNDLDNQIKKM
- Sequence (P14635 whole entry partner, species assumed): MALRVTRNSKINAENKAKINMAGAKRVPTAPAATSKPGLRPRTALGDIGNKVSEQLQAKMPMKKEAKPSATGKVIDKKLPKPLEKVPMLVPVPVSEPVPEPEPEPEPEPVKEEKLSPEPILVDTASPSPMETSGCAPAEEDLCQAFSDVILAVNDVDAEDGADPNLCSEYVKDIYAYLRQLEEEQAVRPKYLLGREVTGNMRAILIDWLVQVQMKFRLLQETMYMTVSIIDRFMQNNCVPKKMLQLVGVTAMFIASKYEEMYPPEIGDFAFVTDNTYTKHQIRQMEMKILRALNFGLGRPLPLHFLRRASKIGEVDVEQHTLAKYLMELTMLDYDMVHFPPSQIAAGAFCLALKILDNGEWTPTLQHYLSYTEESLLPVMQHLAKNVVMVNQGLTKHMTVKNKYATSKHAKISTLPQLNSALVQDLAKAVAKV
- protocol_text: Kinase specificity, cdc2
- Format: biochemical
- assay_conditions: approximate IC50; tested at 50 μM, calculated using the formula in Example 22
pIC50: −log10 of the molar value.
measured_endpoint: pIC50

Req: Please report the recorded pIC50 for O=C(c1ccc2cc[nH]c2c1)N1CCC(Cc2ccccc2)CC1 [Piperidinyl 6, 4-benzylpiperidinyl-indole-6-carboxamide] .
Resp: < 3.30

---

- subject_of_test: p38β (Homo sapiens)
- Sequence (Q15759 whole entry): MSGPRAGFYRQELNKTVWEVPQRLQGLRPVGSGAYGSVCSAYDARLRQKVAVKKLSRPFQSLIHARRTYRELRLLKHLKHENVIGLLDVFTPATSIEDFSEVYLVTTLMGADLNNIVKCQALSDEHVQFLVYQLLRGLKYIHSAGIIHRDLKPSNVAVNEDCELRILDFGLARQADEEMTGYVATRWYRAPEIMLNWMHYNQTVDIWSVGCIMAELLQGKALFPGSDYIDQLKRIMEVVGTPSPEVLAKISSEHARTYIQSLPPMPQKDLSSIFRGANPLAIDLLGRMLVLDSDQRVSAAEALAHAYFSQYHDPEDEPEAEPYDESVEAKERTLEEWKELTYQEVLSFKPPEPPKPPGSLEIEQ
- protocol_text: p38 kinase inhibition assay, p38β
- Type: biochemical
- assay_conditions: at 50 μM concentration of the compound; Table 3; read-out: percent inhibition of p38β activity
Parameter threshold = 60%. Response is criterion met when inhibition at 50 µM meets or exceeds it, else criterion not met.

Consider the worked cases shown below.
O=C(c1ccc2cc[nH]c2c1)N1CCN(Cc2ccccc2)CC1 [Piperazinyl 6] : criterion not met
O=C(c1cccc2cc[nH]c12)N1CCC(Cc2ccccc2)CC1 [Piperidinyl 7] : criterion not met
O=C(c1ccc2[nH]ccc2c1)N1CCC(Cc2ccccc2)CC1 [Piperidinyl 5, 4-Benzylpiperidinyl-indole-5-carboxamide] : criterion met
O=C(c1cc2ccccc2[nH]1)N1CCC(Cc2ccccc2)CC1 [Piperidinyl 2] : criterion not met
O=C(c1cccc2cc[nH]c12)N1CCN(Cc2ccccc2)CC1 [Piperazinyl 7] : criterion not met

Req: Decide: inhibition at 50 µM of O=C(c1cc2ccccc2[nH]1)N1CCN(Cc2ccccc2)CC1 [Piperazinyl 2] >= 60%?
Resp: criterion not met

Req: Could you verify whether the entry O=C(c1cccc2[nH]ccc12)N1CCN(Cc2ccccc2)CC1 [Piperazinyl 4] shows inhibition at 50 µM of no less than 60%?
Resp: criterion met

Req: Check this molecule for inhibition at 50 µM at or above 60%: O=C(c1c[nH]c2ccccc12)N1CCC(Cc2ccccc2)CC1 [Piperidinyl 3]
Resp: criterion met

Req: Please tell me: is the molecule O=C(c1c[nH]c2ccccc12)N1CCN(Cc2ccccc2)CC1 [Piperazinyl 3] at or over 60% in terms of inhibition at 50 µM?
Resp: criterion met

Req: inhibition at 50 µM >= 60% for O=C(c1cccc2[nH]ccc12)N1CCC(Cc2ccccc2)CC1 [Piperidinyl 4] ?
Resp: criterion met
